Data origin: patent US8481526B2

Assay: pH-dependence of solubility in distilled water (HPLC)
Format: physicochemical
Conditions: distilled water, aqueous buffer, thermodynamic from solid; pH 9.11; water, 22° C. ± 2° C.; reported as free base concentration; read-out: Solubility
Structures can show the parent of a compound that is named as a salt.
measured_parameter: solubility (µg/mL)
Dear colleague, please return just the value in µg/mL, with no unit written.

Record N[C@@H]1CCCCN(c2c(F)cc3c(=O)c(C(=O)O)cn(C4CC4)c3c2Cl)C1 [besifloxacin HCl salt] . Reported solubility: 80

* * *

Assay: pH-dependence of solubility in distilled water (HPLC)
Assay type: physicochemical
Details: distilled water, 22 °C, aqueous buffer, thermodynamic from solid; aqueous, pH 3; read-out: Maximum solubility as a function of pH
Protocol: A reversed phase gradient HPLC method was used for the analysis of besifloxacin solubility samples. The conditions are listed below: The solubility of besifloxacin HCl, lot 050956330, was determined in distilled water as a function of pH by adjusting the pH with 1 N NaOH. […] The pH of the suspensions was measured in the presence of excess solid prior to sampling. […] Sample concentration was monitored at varying time intervals to ensure complete equilibration. […]
measured_parameter: solubility

Record N[C@@H]1CCCCN(c2c(F)cc3c(=O)c(C(=O)O)cn(C4CC4)c3c2Cl)C1 . Reported solubility: ~10000 µg/mL

* * *

Experiment: pH-dependence of solubility in distilled water (HPLC)
Format: physicochemical
Details: distilled water, aqueous buffer, thermodynamic from solid; pH 4.87; water, 22° C. ± 2° C.; reported as free base concentration; read-out: Solubility
Structures can show the parent of a compound that is named as a salt.
measured_parameter: solubility (µg/mL)
Dear colleague, please return just the value in µg/mL, with no unit written.

Record N[C@@H]1CCCCN(c2c(F)cc3c(=O)c(C(=O)O)cn(C4CC4)c3c2Cl)C1 [besifloxacin HCl salt] . Reported solubility: 590

* * *

Assay: pH-dependence of solubility in distilled water (HPLC)
Assay type: physicochemical
Details: distilled water, aqueous buffer, thermodynamic from solid; pH 10.37; water, 22° C. ± 2° C.; reported as free base concentration; read-out: Solubility
Structures can show the parent of a compound that is named as a salt.
measured_parameter: solubility (µg/mL)
Dear colleague, please return just the value in µg/mL, with no unit written.

Record N[C@@H]1CCCCN(c2c(F)cc3c(=O)c(C(=O)O)cn(C4CC4)c3c2Cl)C1 [besifloxacin HCl salt] . Reported solubility: 270

* * *

Experiment: pH-dependence of solubility in distilled water (HPLC)
Assay type: physicochemical
Details: distilled water, aqueous buffer, thermodynamic from solid; pH 5.15; water, 22° C. ± 2° C.; reported as free base concentration; read-out: Solubility
Counter-ions that a name gives are not always drawn.
measured_parameter: solubility (µg/mL)
Dear colleague, please return just the value in µg/mL, with no unit written.

Record N[C@@H]1CCCCN(c2c(F)cc3c(=O)c(C(=O)O)cn(C4CC4)c3c2Cl)C1 [besifloxacin HCl salt] . Reported solubility: 240

* * *

Experiment: pH-dependence of solubility in distilled water (HPLC)
Assay type: physicochemical
Conditions: distilled water, aqueous buffer, thermodynamic from solid; pH 3.54; water, 22° C. ± 2° C.; reported as free base concentration; read-out: Solubility
Where a name gives a salt, the structure may show the parent alone.
measured_parameter: solubility (mg/mL)
Dear colleague, please return just the value in mg/mL, with no unit written.

Record N[C@@H]1CCCCN(c2c(F)cc3c(=O)c(C(=O)O)cn(C4CC4)c3c2Cl)C1 [besifloxacin HCl salt] . Reported solubility: 10.6
